We begin with a simple list: items and their reported IC50.
# test.system: recombinant human PREP (Homo sapiens, UniProt P48147)
# Sequence (P48147 whole entry): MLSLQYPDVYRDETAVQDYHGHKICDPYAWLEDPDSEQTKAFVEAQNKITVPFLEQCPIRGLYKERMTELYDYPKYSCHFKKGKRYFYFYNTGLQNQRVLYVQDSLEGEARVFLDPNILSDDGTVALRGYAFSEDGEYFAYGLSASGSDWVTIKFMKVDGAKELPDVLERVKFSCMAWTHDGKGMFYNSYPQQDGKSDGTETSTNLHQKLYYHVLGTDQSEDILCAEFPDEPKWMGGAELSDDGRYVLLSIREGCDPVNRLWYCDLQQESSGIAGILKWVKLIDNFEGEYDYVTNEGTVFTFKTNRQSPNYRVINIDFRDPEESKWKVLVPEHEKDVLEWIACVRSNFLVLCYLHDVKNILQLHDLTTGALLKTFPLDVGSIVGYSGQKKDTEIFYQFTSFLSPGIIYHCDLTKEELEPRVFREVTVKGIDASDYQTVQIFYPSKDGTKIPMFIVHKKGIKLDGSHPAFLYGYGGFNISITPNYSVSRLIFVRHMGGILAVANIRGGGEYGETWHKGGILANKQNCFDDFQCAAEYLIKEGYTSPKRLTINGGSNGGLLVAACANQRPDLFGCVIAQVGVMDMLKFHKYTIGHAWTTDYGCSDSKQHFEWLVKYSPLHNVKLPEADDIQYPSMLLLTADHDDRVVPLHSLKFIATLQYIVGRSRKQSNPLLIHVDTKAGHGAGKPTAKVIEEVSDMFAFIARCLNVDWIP
# assay.remarks: PREP protease activity assay
# study.conditions: 50 µM Z-GP-AMC substrate

>  <compound>
CS(=O)(=O)c1cccc(-c2ccc3c(C(=O)NCC(=O)N4CC(F)(F)C[C@H]4C#N)ccnc3c2)c1 [drawing 289]

>  <IC50>
> 1 µM

$$$$
>  <compound>
CS(=O)(=O)c1cccc(-c2ccc3c(C(=O)NCC(=O)N4CCC[C@H]4C#N)ccnc3c2)c1

>  <IC50>
> 1 µM

$$$$
>  <compound>
N#C[C@@H]1CCCN1C(=O)CNC(=O)c1ccnc2ccc(-c3cccc(C(=O)O)c3)cc12

>  <IC50>
> 1 µM

$$$$
>  <compound>
CS(=O)(=O)c1cccc(-c2ccc3nccc(C(=O)NCC(=O)N4CC(F)(F)C[C@H]4C#N)c3c2)c1 [drawing 288]

>  <IC50>
> 1 µM

$$$$
>  <compound>
CS(=O)(=O)c1ccc(-c2ccc3nccc(C(=O)NCC(=O)N4CC(F)(F)C[C@H]4C#N)c3c2)cc1

>  <IC50>
> 1 µM

$$$$

Determine its reported IC50: N#C[C@@H]1CCCN1C(=O)CNC(=O)c1ccnc2cc(-c3cccc(C(=O)O)c3)ccc12
> 1 µM

Determine its reported IC50: N#C[C@@H]1CCCN1C(=O)CNC(=O)c1ccnc2cc(-c3ccc(C(=O)O)cc3)ccc12
> 1 µM

Determine its reported IC50: CS(=O)(=O)c1cccc(-c2ccc3nccc(C(=O)NCC(=O)N4CCC[C@H]4C#N)c3c2)c1
> 1 µM

Determine its reported IC50: CS(=O)(=O)c1ccc(-c2ccc3nccc(C(=O)NCC(=O)N4CCC[C@H]4C#N)c3c2)cc1
> 1 µM

All values here come from patent EP4122499A1.
